Entry source: patent US20220324865A1

# experimental_system: UniProtKB P43115
# assay_comment: Cellular in vitro assay for determining EP3 receptor activity (human EP3 cell line, sulprostone-stimulated calcium luminescence)
# setup_conditions: CHO cells expressing human EP3 and mitochondrial Clytin; antagonist mode, sulprostone at EC50; read-out: EP3 CHO mtCLY ANTAG IC50
pIC50: −log10 of the molar value.
parameter_measured: pIC50

Answered examples (2):
Cc1ccc(-c2cn3nc(C(=O)NCC(N)C(F)(F)F)c(C4CC4)c3c(=O)[nH]2)cc1F (racemic) [6-395]; 8.18
Cc1ccc(-c2cn3nc(C(=O)N[C@@H](C)C4CC4)c(C4CC4(F)F)c3c(=O)[nH]2)cc1Cl (stereo partly shown); 8.96

[1] Cc1ccc(-c2cn3nc(C(=O)NC4(c5ccc(F)cc5)CN(C)C4)c(C4CCC4)c3c(=O)[nH]2)cc1F
[2] CC(NC(=O)c1cc2c(=O)[nH]c(-c3ccc4cccnc4c3)cn2n1)c1ccc(F)c(F)c1 (stereo not shown)
Pick the one with the larger pIC50: 1 vs 2 Answer by stating the label of the chosen item.
1

[1] CC(C)(O)[C@@H](NC(=O)c1nn2cc(-c3ccc(Cl)c(F)c3)[nH]c(=O)c2c1C1CC1)c1ccc(F)cc1
[2] CC(C)C(NC(=O)c1cc2c(=O)[nH]c(-c3ccc4ccccc4c3)cn2n1)c1ccc(F)cc1 (stereo not shown)
Hi there, can you help? I need to know whether 1 or 2 has lower measured pIC50. Lab note: record the label of whichever item you select.
2
(2: 8.44, 1: 8.66)

###

# experimental_system: UniProt P43115
# assay_comment: Cellular in vitro assay for determining EP3 receptor activity (human EP3 cell line, sulprostone-stimulated calcium luminescence)
# setup_conditions: CHO cells expressing human EP3 and mitochondrial Clytin; antagonist mode, sulprostone at EC50; read-out: EP3 CHO mtCLY ANTAG IC50
pIC50: −log10 of the molar value.
parameter_measured: pIC50

Cc1c(C(=O)NC(C)CC2CC2)nn2c(C)c(-c3ccc4ccccc4c3)[nH]c(=O)c12 (stereo not shown) [Example 3-10]; 8.56
Cc1ccc(-c2cn3nc(C(=O)NC(C(C)(C)O)C(F)(F)F)c(C4CC4)c3c(=O)[nH]2)cc1F (racemic) [6-394]; 8.18
Cc1cc(-c2cn3nc(C(=O)N[C@@H](c4ccc(F)cc4)C(C)(C)O)c(C4CC4)c3c(=O)[nH]2)ccc1C(F)(F)F [Example 1-132]; 8.39

[a] Cc1ccc(-c2cn3nc(C(=O)N[C@H](C)c4ccc(F)cc4)c(C(C)C)c3c(=O)[nH]2)cc1C [Example 1-90]
[b] CC[C@H](C)NC(=O)c1nn2cc(-c3ccc(Cl)c(C)c3)[nH]c(=O)c2c1C1CC1 [6-331]
[c] Cc1cccc2ncc(-c3cn4nc(C(=O)Nc5cnn(C)c5)c(C(C)C)c4c(=O)[nH]3)cc12 [Example 4-24]
[d] Cc1cc(-c2cn3nc(C(=O)N[C@@H](c4ccc(F)cc4)C(F)(F)CO)c(C(F)(F)F)c3c(=O)[nH]2)ccc1F [6-647]
Order the records by pIC50, with each subsequent value no larger than the one before. Reply with the item labels sorted in the order that was asked for.
a, c, d, b
(a: 9.29, c: 8.94, d: 8.52, b: 8.31)

###

# experimental_system: human EP3 receptor (Homo sapiens)
# Sequence (P43115 1-390): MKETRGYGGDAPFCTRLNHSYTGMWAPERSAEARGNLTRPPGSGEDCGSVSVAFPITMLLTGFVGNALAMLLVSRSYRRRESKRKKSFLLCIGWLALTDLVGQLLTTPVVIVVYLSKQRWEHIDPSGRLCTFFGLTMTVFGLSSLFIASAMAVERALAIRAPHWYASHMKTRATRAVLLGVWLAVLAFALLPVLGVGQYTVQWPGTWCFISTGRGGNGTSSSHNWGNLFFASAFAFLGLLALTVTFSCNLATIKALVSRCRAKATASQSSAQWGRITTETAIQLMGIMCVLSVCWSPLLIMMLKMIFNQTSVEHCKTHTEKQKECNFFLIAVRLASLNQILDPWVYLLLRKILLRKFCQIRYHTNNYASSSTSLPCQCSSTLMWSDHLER
# assay_comment: Cellular in vitro assay for determining EP3 receptor activity (human EP3 cell line, sulprostone-stimulated calcium luminescence)
# setup_conditions: CHO cells expressing human EP3 and mitochondrial Clytin; antagonist mode, sulprostone at EC50; read-out: EP3 CHO mtCLY ANTAG IC50
# Description: B-1. Cellular In Vitro Assay for Determining EP3 Receptor Activity The identification of antagonists of the EP3 receptor from humans and rats as well as the quantification of the activity of the compounds of the invention was carried out using recombinant cell lines. […] Antagonists inhibit the receptor signaling, leading to reduced calcium release and luminescence. The bioluminescence of the cell lines is detected using a suitable luminometer (Trends Pharmacol. Sci. 1996, 17, 235-237). […]
parameter_measured: IC50 (nM)

Cc1ccc(-c2cn3nc(C(=O)NC4CCN(CC(F)F)C4)c(C4CC4)c3c(=O)[nH]2)cc1C (stereo not shown) [6-453]; 1.13

[I] CCn1ccc(C(C)NC(=O)c2nn3cc(-c4cnc5cccc(C)c5c4)[nH]c(=O)c3c2C(C)C)n1 (stereo not shown)
[II] COc1ccc([C@H](CCO)NC(=O)c2nn3cc(-c4ccc5ccccc5c4)[nH]c(=O)c3c2C#N)cc1
[III] Cc1ccc(-c2cn3nc(C(=O)NC(CO)C(F)(F)F)c(C4CC4)c3c(=O)[nH]2)cc1C(F)(F)F (single isomer, unassigned) [6-250]
[IV] COC[C@@H](NC(=O)c1nn2cc(-c3ccc(C(F)(F)F)c(C)c3)[nH]c(=O)c2c1C1CC1)c1ccccc1
Descending sort on IC50 required. Respond with an ordered listing of the labels, as requested.
III, II, IV, I

###

# experimental_system: human EP3 receptor (Homo sapiens, UniProt P43115)
# assay_comment: Cellular in vitro assay for determining EP3 receptor activity (human EP3 cell line, sulprostone-stimulated calcium luminescence)
# setup_conditions: CHO cells expressing human EP3 and mitochondrial Clytin; antagonist mode, sulprostone at EC50; read-out: EP3 CHO mtCLY ANTAG IC50
parameter_measured: IC50 (nM)

Please review the entries below; each comes with its answer.
Cc1ccc(-c2cn3nc(C(=O)N[C@@H](c4ccc(F)cc4)C(C)(C)O)c(C(F)(F)F)c3c(=O)[nH]2)cc1C; 0.905
Cc1c(C(=O)Nc2ccnn2C(C)C)nn2c(C)c(-c3ccc4ccccc4c3)[nH]c(=O)c12; 4.75
O=C(N[C@H](CCO)c1ccc(F)cc1)c1cc2c(=O)[nH]c(-c3ccc4c(c3)CCCC4)cn2n1; 0.965
O=C(N[C@@H](c1ccc(F)cc1)C(F)(F)CO)c1nn2cc(-c3ccc(C(F)(F)F)c(F)c3F)[nH]c(=O)c2c1C1CC1; 4.25
CCc1ccc(C(C)NC(=O)c2nn3c(C)c(-c4ccc5ccccc5c4)[nH]c(=O)c3c2C)cc1 (stereo not shown); 4.15
Cc1ccc(-c2cn3nc(C(=O)N[C@@H](c4ccccc4)C(C)(C)O)cc3c(=O)[nH]2)cc1C; 3.65
CCN(CCO)CC(NC(=O)c1nn2cc(-c3ccc4ccccc4c3)[nH]c(=O)c2c1C(F)(F)F)c1ccccc1 (stereo not shown); 0.855
O=C(N[C@@H](c1ccc(F)cc1)C(F)(F)CO)c1nn2cc(-c3ccc(Cl)c(F)c3)[nH]c(=O)c2c1C1CCC1; 1.5
Cc1ccc(-c2[nH]c(=O)c3c(C4CC4)c(C(=O)N[C@@H](c4ccc(F)cc4)C(F)(F)CO)nn3c2F)cc1Cl; 6.1
O=C(NC(CCn1cncn1)c1ccccc1)c1cc2c(=O)[nH]c(-c3ccc4ccccc4c3)cn2n1 (stereo not shown); 5.7

[P] O=C(N[C@@H]1c2ccccc2C[C@@H]1O)c1cc2c(=O)[nH]c(-c3ccc4ccccc4c3)cn2n1
[Q] O=C(NC(CO)c1ccc(F)cc1)c1cc2c(=O)[nH]c(-c3ccc4cccc(F)c4c3)cn2n1 (stereo not shown)
Input pair: P , Q . Output: entry with lower IC50. Kindly state the label of the option you pick.
Q

###

# experimental_system: human EP3 receptor (Homo sapiens, UniProt P43115)
# Sequence (P43115 1-390): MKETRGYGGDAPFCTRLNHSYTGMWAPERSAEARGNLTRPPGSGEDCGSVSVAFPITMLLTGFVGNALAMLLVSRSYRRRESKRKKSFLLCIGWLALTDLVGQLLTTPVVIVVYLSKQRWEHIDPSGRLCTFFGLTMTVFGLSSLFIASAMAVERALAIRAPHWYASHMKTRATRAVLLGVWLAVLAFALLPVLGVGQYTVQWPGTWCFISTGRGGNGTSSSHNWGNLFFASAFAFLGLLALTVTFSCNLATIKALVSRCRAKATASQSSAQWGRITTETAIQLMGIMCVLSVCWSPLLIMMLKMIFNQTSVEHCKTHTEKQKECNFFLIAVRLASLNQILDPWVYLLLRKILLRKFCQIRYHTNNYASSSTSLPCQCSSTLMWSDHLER
# assay_comment: Cellular in vitro assay for determining EP3 receptor activity (human EP3 cell line, sulprostone-stimulated calcium luminescence)
# setup_conditions: CHO cells expressing human EP3 and mitochondrial Clytin; antagonist mode, sulprostone at EC50; read-out: EP3 CHO mtCLY ANTAG IC50
pIC50: −log10 of the molar value.
parameter_measured: pIC50

O=C(NCc1nc2ccccc2[nH]1)c1cc2c(=O)[nH]c(-c3ccc4ccccc4c3)cn2n1; 8.61
CCn1cc(Cl)c(CNC(=O)c2nn3cc(-c4cnc5cccc(C)c5c4)[nH]c(=O)c3c2C(C)C)n1; 9.00
CC(CC(F)(F)F)NC(=O)c1cc2c(=O)[nH]c(-c3ccc4ccccc4c3)cn2n1 (centres unmarked); 8.45

[a] Cc1cccc2ncc(-c3cn4nc(C(=O)NCC(C)(C)C)c(C(C)C)c4c(=O)[nH]3)cc12
[b] Cc1c(C(=O)NC(C)c2cccc(Br)c2)nn2c(C)c(-c3ccc4ccccc4c3)[nH]c(=O)c12 (centres unmarked)
[c] Cc1ccc([C@H](C)NC(=O)c2nn3c(C)c(-c4ccc5ccccc5c4)[nH]c(=O)c3c2C)cc1
[d] COc1ccc([C@@H](C)NC(=O)c2nn3cc(-c4ccc(Cl)c(Cl)c4)[nH]c(=O)c3c2C2CC2)cn1
Reorder the items by pIC50, least to greatest. Sort the labels as requested; that list is your answer.
c, b, a, d
(c: 8.10, b: 8.31, a: 8.72, d: 9.09)

[a] COC[C@@H](NC(=O)c1nn2cc(-c3ccc4ccccc4c3)[nH]c(=O)c2c1C#N)c1ccccc1
[b] Cc1cccc2ncc(-c3cn4nc(C(=O)NC(CO)c5ccc(Br)cc5)c(C(C)C)c4c(=O)[nH]3)cc12 (centres unmarked)
Field: lower pIC50 | Options: a / b Lab log: write the label of the selected item as the result.
a
(a: 8.57, b: 8.90)
